measured parameter: melting point

CC(C)(CO)[C@H](O)C(=O)NCCNC(=O)[C@@H](O)C(C)(C)CO [Compound V4] ... 124.8 to 124.9 °C
CC(C)(CO)C(O)C(=O)NCc1cccnc1 (stereo not shown) [AB] ... 120 to 121.5 °C
CC(C)(CO)[C@@H](O)C(=O)NCCNC(=O)[C@H](O)C(C)(C)CO [Compound V3] ... 124.8 to 124.9 °C

Query: Name the reported melting point value associated with the compound CCCCCOc1cc(C)c(NC(=O)C(O)C(C)(C)CO)c(C)c1 (stereo not shown) [AA]
Response: 101 to 102.5 °C

These measurements were taken from patent US20030236213A1.
